Data provenance is patent US20250002570A1.

I'd appreciate it if you could supply kon values for the items below.
# experimentalTarget: T1, human VEGF C (human, UniProt P49767 103-227, limits assumed)
# T1 construct: also called hVEGFC; hVEGF C
# T1 sequence (looked up): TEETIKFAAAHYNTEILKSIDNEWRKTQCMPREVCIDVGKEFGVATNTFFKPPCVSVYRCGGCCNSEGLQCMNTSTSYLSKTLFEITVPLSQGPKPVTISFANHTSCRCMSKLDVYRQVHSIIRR
# assayRemarks: BLI (ForteBio), monovalent binding, 30 C
Give bare numbers, in M⁻¹ s⁻¹.

{"binder": "am63G12-5G8-18B9 affinity-matured humanized anti-VEGF C VHH antibody (VHH, also called Am63G2-5G8-18B9; am63G12.1-5G8-18B9) VHH: EVQLVESGGGLVQPGGSLRLSCAASGSSFSPYAMGWYRQAPGKQRELVSATSSGGFTLYADSVKGRFTISRDNSKNTVYLQMNSLRAEDTAVYYCYTYYREYDPEMYWGQGTQVTVSS", "reported": 63100}
{"binder": "LA63G12 anti-VEGF C VHH antibody (VHH, The prokaryotic product was purified on Ni Sepharose) VHH: QLQLVESGGGLVQPGGSLRLSCAASGSSFSPYAMGWYRQAPGKQRELVAATTSGGSTLYADSVKGRFTISRDNAKNTVYLQMNSLKPEDTAVYYCYMHWRGSDPENYWGQGTQVTVSS", "reported": 46500}
{"binder": "am63G12-14B11 affinity-matured humanized anti-VEGF C VHH antibody (VHH, also called am63G12.1-14B11) VHH: EVQLVESGGGLVQPGGSLRLSCAASGSSFSPYAMGWYRQAPGKQRELVSATSEGGFTLYADSVKGRFTISRDNSKNTVYLQMNSLRAEDTAVYYCYMHWRGSDPENYWGQGTQVTVSS", "reported": 55300}

State, in one line, measured kon of LA49G9 anti-VEGF C VHH antibody (VHH, The prokaryotic product was purified on Ni Sepharose) VHH: QLQLVESGGGLVQPGGSLRLSCAASGSMFSMYAMGWYRQAPGKQRELVAATTSGGSTLYADSVKGRFTISRDNAENTVYLQMNSLKPEDTAVYYCYTYWRGSDPENYWGRGTQVTVSS
54300
